# IC50 listing for each entry below
test protocol: In vitro inhibitory activity against Factor Xa
Note: unit nM is implicit; provide only the numeric part.

These recorded examples may help you get a feel for the data.
compound="NS(=O)(=O)c1ccccc1-c1ccc(NC(=O)C(CC(=O)Nc2ccc(Br)cn2)NC(=O)Nc2ccccc2)cc1 (configuration not stated)" reported_value=37
compound="NS(=O)(=O)c1ccccc1-c1ccc(C(=O)NC(CC(=O)Nc2ccc(Br)cn2)C(=O)Nc2ccccc2)cc1 (configuration not stated)" reported_value=26.5
compound=O=C(C[C@H](NC(=O)c1ccc(-c2ccccc2CN2CCCC2)cc1)C(=O)N1CCCCC1)Nc1ccc(Br)cn1 reported_value=230

Q. Respond only with IC50 recorded for CC(=O)NC(CC(=O)Nc1ccc(Br)cn1)C(=O)Nc1ccc(-c2ccccc2S(N)(=O)=O)cc1 (configuration not stated)
A. 182

Q. Respond only with IC50 recorded for NC(CNC(=O)c1ccc(-c2ccccc2S(N)(=O)=O)cc1)C(=O)Nc1ccc(Br)cn1 (configuration not stated)
A. 1650

Q. Respond only with IC50 recorded for NC(CC(=O)Nc1ccc(Br)cn1)C(=O)Nc1ccc(-c2ccccc2S(N)(=O)=O)cc1 (configuration not stated)
A. 145

Q. Respond only with IC50 recorded for NS(=O)(=O)c1ccccc1-c1ccc(NC(=O)C(CC(=O)Nc2ccc(Br)cn2)NC(=O)c2cccnc2)cc1 (configuration not stated)
A. 47.2

----------
test protocol: In vitro inhibitory activity against Factor Xa
Rule: IC50 below 0.3 µM gives 1 (yes). Equal to or above 0.3 µM gives 0 (no).

Some solved cases for reference:
compound=NS(=O)(=O)c1ccccc1-c1ccc(C(=O)NCCNC(=O)c2ccccc2)cc1 class_assignment="0 (no)"
compound="CCOC(=O)CNC(=O)C(CC(=O)Nc1ccc(Br)cn1)NC(=O)c1ccc(-c2ccccc2S(N)(=O)=O)cc1 (stereo not given)" class_assignment="1 (yes)"

Q. Determine if NS(=O)(=O)c1ccccc1-c1ccc(C(=O)NC(CC(=O)Nc2ccc(Br)cn2)C(=O)N2CCCCCC2)cc1 (stereo not given) shows IC50 strictly lower than 0.3 µM.
A. 1 (yes)

----------
# IC50 listing for each entry below
test protocol: In vitro inhibitory activity against Factor Xa
Note: unit nM is implicit; provide only the numeric part.

compound=O=C(C[C@H](NC(=O)c1ccc(-c2ccccc2CN2CCOCC2)cc1)C(=O)N1CCCCC1)Nc1ccc(Br)cn1 endpoint_label=IC50 reported_value=290
compound=CN1CCN=C1c1ccc(C(=O)N[C@H](CC(=O)Nc2ccc(Br)cn2)C(=O)N2CCCCC2)cc1 endpoint_label=IC50 reported_value=8.2
compound="CNC(=O)C(CC(=O)Nc1ccc(Br)cn1)NC(=O)c1ccc(-c2ccccc2S(N)(=O)=O)cc1 (configuration not stated)" endpoint_label=IC50 reported_value=17.4

Q. Respond only with IC50 recorded for CN(C)C(=N)c1ccc(C(=O)N[C@@H](CC(=O)Nc2ccc(Cl)cn2)C(=O)N2CCCCC2)cc1
A. 24

Q. Respond only with IC50 recorded for NS(=O)(=O)c1ccccc1-c1ccc(NC(=O)C(CC(=O)Nc2ccc(Br)cn2)NC(=O)C2CCCNC2)cc1 (configuration not stated)
A. 442

Q. Respond only with IC50 recorded for NS(=O)(=O)c1ccccc1-c1ccc(C(=O)NC(CC(=O)Nc2ccc(Br)cn2)C(=O)O)cc1 (configuration not stated)
A. 4.37

Q. Respond only with IC50 recorded for COCCN(C)Cc1ccccc1-c1ccc(C(=O)N[C@@H](CC(=O)Nc2ccc(Br)cn2)C(=O)N2CCCCC2)cc1
A. 940
